- System: T1, GST–PPARγ fusion protein (purified ligand binding domain of PPARγ)
- T1 chain: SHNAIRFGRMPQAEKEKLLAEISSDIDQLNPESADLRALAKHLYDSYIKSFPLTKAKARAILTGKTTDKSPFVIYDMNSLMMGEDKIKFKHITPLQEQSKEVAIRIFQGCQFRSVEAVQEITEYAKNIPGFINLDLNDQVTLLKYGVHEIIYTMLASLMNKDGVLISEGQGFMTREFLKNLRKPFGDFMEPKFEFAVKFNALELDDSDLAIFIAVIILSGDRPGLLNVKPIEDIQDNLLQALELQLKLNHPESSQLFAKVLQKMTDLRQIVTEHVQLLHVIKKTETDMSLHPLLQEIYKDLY
- Test Summary: FRET or BRET; homogeneous TR-FRET as a1, 12-concentration dose–response of edaglitazone; the EC50 is of the compound; delta ratio in % of the reference compound at 10 μM (RO4899100 for PPARα, edaglitazone for PPARγ)
- Measurement Context: both partners purified
Where no end group is shown, it is not given here. The star is where a group is joined. Biotin = O=C1N[C@H]2[C@H](CS[C@H]2CCCCC(=O)*)N1; Ahx = NCCCCCC(=O)O
The following binders are shown together with reported EC50 of edaglitazone for recruitment values.
Write the number in nM without appending the unit.

These solved cases illustrate the format of a correct answer.
[
  {
    "Binder": "{Biotin-Ahx}-PKKENNALLRYLLDRDDPSDV (source: synthetic peptide (Jerini or Biosynthan, Berlin)) [RAC3_M3 cofactor peptide (receptor-associated co-activator 3, motif 3)]",
    "Unit Name": "nM",
    "EC50 of edaglitazone for recruitment": 33.1
  },
  {
    "Binder": "{Biotin-Ahx}-SNMHGSLLQEKHRILHKLLQNGNSP (source: synthetic peptide (Jerini or Biosynthan, Berlin)) [RAC3_M2 cofactor peptide (receptor-associated co-activator 3, motif 2)]",
    "Unit Name": "nM",
    "EC50 of edaglitazone for recruitment": 22.7
  }
]

Shifting focus to the binder that follows.
Q: Find the recorded EC50 of edaglitazone for recruitment belonging to {Biotin-Ahx}-GNTKNHPMLMNLLKDNPAQDF (thyroid hormone receptor-associated protein complex 220 kDa component (TRAP220), motif 2, residues 637-657; also called TRAP220_M2; TRAP220 M2; source: synthetic peptide (Jerini or Biosynthan, Berlin)) and report it.
Ans: 9.5
